- System: Hepatitis C virus
- assayProtocol: Antiviral activity against Hepatitis C virus subtype 1a by replication assay
- Assay type: functional, organism-based, Hepacivirus hominis
measuredParameter: EC50 (nM)

Worked examples follow.
compound	measureUnit	EC50
CC[C@H](C)NC(=O)c1ccc(N2CCN(S(=O)(=O)c3ccc(OC(F)(F)F)cc3)[C@@H](C(=O)NCc3ccc(OC(F)(F)F)cc3)C2)nn1	nM	87
O=C(NC1CC1)c1ccc(N2CCN(S(=O)(=O)c3ccc(OC(F)(F)F)cc3)[C@@H](C(=O)NCc3ccc(OC(F)(F)F)cc3)C2)nn1	nM	169
CCc1ccc(S(=O)(=O)N2CCN(c3cc(OC)nc(OC)n3)CC2C(=O)NCc2ccc(OC)cc2)cc1 (racemic)	nM	25000

P = COc1ccc(CNC(=O)C2CN(c3cc(OC)nc(OC)n3)CCN2S(=O)(=O)c2ccc(OC(F)(F)F)cc2)cc1 (racemic)
Q = COc1ccc(CNC(=O)C2CN(c3ccc(Cl)nn3)CCN2S(=O)(=O)c2ccc(OC(F)(F)F)cc2)cc1 (racemic)
Hi, I'm comparing P with Q and wondering which one has the bigger number for EC50. Any idea? Provide the label of your selected option as the answer.
P
(P: 8100 nM, Q: 2200 nM)

FYI, the data here is from ChEMBL document CHEMBL1759977.
